The compounds listed here are annotated with their growth inhibition.
experiment: NCI Yeast Anticancer Drug Screen. Data for the sgs1 mgt1 strain (AID 161);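 note: 0% = growth of cultures given vehicle only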; details: S. cerevisiae sgs1 mgt1 strain, at 50.0 µM, hits give high values
Compounds without any hit were thinned out: in the full panel of roughly 79,000, 15% have a hit.
Kindly provide the numeric value in % only, without the unit symbol.

CCC1c2c(cc(=O)[nH]c2O)C(=O)N1Cc1ccccc1 (configuration not stated): 7.75
CCOC(=O)NC(=O)c1cn(CCN2CCN(c3ncnc4nc[nH]c34)CC2)c(=O)[nH]c1=O: 14.4
COc1ccc(-n2cc[n+](C)c2/C=N\O)cc1: 3.2

growth inhibition recorded for this compound, Nc1nc(Nc2ccccc2)c2ncn(C3OC(CO)C(O)C3O)c2n1 (configuration not stated) , is 0.25

growth inhibition recorded for this compound, CC(C)CC/C(=N\NC(N)=O)C1CCOCC1 , is 9.25

growth inhibition recorded for this compound, O=C(CC1=NC2NN(c3ccccc3)C(=O)C2=C1CC(=O)c1ccc([N+](=O)[O-])cc1)c1ccc([N+](=O)[O-])cc1 (configuration not stated) , is 3.4

growth inhibition recorded for this compound, Nc1ccc(Nc2c3ccccc3nc3ccccc23)cc1 , is 23.4

growth inhibition recorded for this compound, C=CC[N+](CC)(CC)CC , is 2.35

* * *

The compounds listed here are annotated with their growth inhibition.
assay: NCI Yeast Anticancer Drug Screen. Data for the mlh1 rad18 strain (AID 175); conditions: S. cerevisiae mlh1 rad18 strain growth inhibition; at 50.0 µM; hits give high values
Compounds without any hit were thinned out: in the full panel of roughly 79,000, 15% have a hit.
Kindly provide the numeric value in % only, without the unit symbol.

growth inhibition recorded for this compound, COc1ccc(C(=O)/C=C/c2ccc(OC)c(OC)c2OC)c(O)c1 , is 14.7

* * *

experiment: NCI Yeast Anticancer Drug Screen. Data for the mec2-1 strain (AID 157); conditions: S. cerevisiae mec2-1 strain, at 50.0 µM, hits give high values
This is part of a sample that, as a whole, favours compounds with a hit. Of some 79,000 tested, about 15% had one in any assay.
The compounds listed here are annotated with their growth inhibition.
Kindly provide the numeric value in % only, without the unit symbol.

Known growth inhibition results, listed for orientation:
COC1(OC)c2no[n+]([O-])c2C(OC)(OC)c2c1no[n+]2[O-]: -4.8
O=C1CS(=O)(=O)CN1c1ccc(Cl)c(Cl)c1: -3.35
CCOC(=O)C1CCCC1S(=O)(=O)c1ccc(C)cc1 (stereo unspecified): -15.3
O=C(O)c1onc2ccccc12: -15.1
CC(=O)OCC1OC(n2nnc3c(=O)n(C)c(=O)[nH]c32)C(OC(C)=O)C(OC(C)=O)C1OC(C)=O (stereo unspecified): 16.1

Then this compound:
growth inhibition recorded for this compound, Nc1ccn(C2OC(CCl)C(O)C2O)c(=O)n1 (stereo unspecified) , is 3.2

* * *

test: NCI Yeast Anticancer Drug Screen. Data for the sgs1 mgt1 strain (AID 161);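 note: 0% = growth of cultures given vehicle only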; details: S. cerevisiae sgs1 mgt1 strain, at 50.0 µM, hits give high values
The panel holds about 79,000 compounds, 15% with a hit somewhere; the sample as a whole holds those more often.
RESULT_TYPE: growth inhibition (%)
Kindly provide the numeric value in % only, without the unit symbol.

Known growth inhibition results, listed for orientation:
CCC1(c2ccc(N3C(=O)c4cc(OC)c(OC)cc4C3=O)cc2)CCC(=O)NC1=O (stereo unspecified): -7.25
CC(Br)CCl (stereo unspecified): 22.1
Cc1ccc(C)c(CNC(=O)C2CCCCC2C(=O)O)c1 (stereo unspecified): 37.2
O=[N+]([O-])c1ccccc1S(=O)(=O)N(CCCCCN(S(=O)(=O)c1ccccc1[N+](=O)[O-])S(=O)(=O)c1ccccc1[N+](=O)[O-])S(=O)(=O)c1ccccc1[N+](=O)[O-]: 10.8
COc1ccc(C2(C#N)CCCC2)cc1: 0.95

growth inhibition recorded for this compound, O=C(Nc1ccc(F)c([N+](=O)[O-])c1)Nc1cc(C(F)(F)F)ccc1Cl , is 0.55

growth inhibition recorded for this compound, CC(=O)Oc1cc(Cl)c(Cl)cc1Cl , is -5.65

growth inhibition recorded for this compound, CC1=C(C(=O)NCc2ccccc2)C(c2ccco2)C(C(=O)NCc2ccccc2)=C(C)N1 , is -37.5

growth inhibition recorded for this compound, O=C(O)CCc1ccc2ccccc2n1 , is -19.8

* * *

The molecules listed here are annotated with their growth inhibition.
assay: NCI Yeast Anticancer Drug Screen. Data for the rad50 strain (AID 155);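 note: 0% = growth of vehicle-only cultures of the same strain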; details: S. cerevisiae rad50 strain growth inhibition; at 50.0 µM; hits give high values
This is part of a sample that, as a whole, favours compounds with a hit. Of some 79,000 tested, about 15% had one in any assay.
Kindly provide the numeric value in % only, without the unit symbol.

Known growth inhibition results, listed for orientation:
Nc1cc2c(cc1Br)-c1ccccc1C2Br (stereo not given): -6.35
CCCOC(=O)NC(C)C(=O)NC(CCC(=O)NC(CCCC(N)C(=O)O)C(=O)NC(C)C(=O)O)C(=O)O (stereo not given): -20.8
COc1cc2c(cc1OC)C(=O)N(c1ccc(OCCN3CCCC3)cc1)C2=O: -20.7
COc1cc(C2SCC(=O)N2NC(=O)c2ccc(NC(C)=O)cc2)cc(OC)c1OC (stereo not given): -11.8
O=C(NC1CCCCC1)OC/C=C\c1ccccc1: 7.2

growth inhibition recorded for this molecule, COC(=O)[C@H]1N[C@@H](C(=O)OC)C23CCC[C@H]2CC[C@]1(C(OC)OC)C3 , is -3.5

growth inhibition recorded for this molecule, COc1cc(OC)cc(Oc2nc3ccc(C(F)(F)F)cc3nc2-c2ccccc2)c1 , is -33.1

growth inhibition recorded for this molecule, CCOC1=CC(=O)C(=O)c2ccccc21 , is -1.05

growth inhibition recorded for this molecule, CC(=O)CC(=O)NC1CCCC1 , is -25.8

growth inhibition recorded for this molecule, OC1CCC2=C(C1)C1CCC2C1 (stereo not given) , is 9.05

growth inhibition recorded for this molecule, CC1(C2c3ccccc3CC2OC2CCCCO2)CO1 (stereo not given) , is -8.35

growth inhibition recorded for this molecule, C=CCOC(=O)COC(=O)C(C)(C)OC(C)=O , is -3.35

growth inhibition recorded for this molecule, O=C(O)C(Cc1ccc2c(c1)CCC2)(Cc1ccc2c(c1)CCC2)C(=O)O , is 26.9

growth inhibition recorded for this molecule, CCN1CCCC(C#N)(c2ccccc2)CC1 (stereo not given) , is 14.1

* * *

test: NCI Yeast Anticancer Drug Screen. Data for the cln2 rad14 strain (AID 165);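 note: 0% = growth equal to vehicle treated cultures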; settings: S. cerevisiae cln2 rad14 strain, at 50.0 µM, hits give high values
This is part of a sample that, as a whole, favours compounds with a hit. Of some 79,000 tested, about 15% had one in any assay.
RESULT_TYPE: growth inhibition (%)
Kindly provide the numeric value in % only, without the unit symbol.

CC(=O)NC(=O)CCc1ccccc1: -26.1
N#CC1(C#N)C(CCl)C1(C#N)C#N: -15.2
Nc1nc(SCC(=O)c2ccc(F)cc2)sc1C(=O)c1ccc(F)cc1: 1.3
O=C1OC(c2ccccc2)=N/C1=C\c1ccco1: 19.6
COc1ccc(-c2nc(SCC(=O)O)n(-c3ccccn3)c2-c2ccc(OC)cc2)cc1: 83.7

growth inhibition recorded for this molecule, CC(=O)Oc1ccc(OC(C)=O)c(C(=O)O)c1 , is -39.3

* * *

assay: NCI Yeast Anticancer Drug Screen. Data for the rad50 strain (AID 155);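 note: 0% = growth of vehicle-only cultures of the same strain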; conditions: S. cerevisiae rad50 strain growth inhibition; at 50.0 µM; hits give high values
The panel holds about 79,000 compounds, 15% with a hit somewhere; the sample as a whole holds those more often. The source made the active and inactive calls. Rule as the data show it: active = growth inhibition above about 70%; inactive = the rest. Where a SMILES comes first, the peptide text is derived from it. The star is where a group is joined. Boc = CC(C)(C)OC(=O)*; tBu = CC(C)(C)*
The molecules listed here are annotated with their growth inhibition.

Known growth inhibition results, listed for orientation:
CC1=C(CCC(C)CO)O[C@H]2C[C@H]3[C@@H]4CC[C@H]5C[C@@H](O)CC[C@]5(C)[C@H]4CC(=O)[C@]3(C)[C@@H]12 (stereo partly drawn): 64.3% (inactive)
O=C1C=C[C@@H](COC2OC(CO)C(O)C(O)C2O)O1 (stereo partly drawn): 6.35% (inactive)
CSc1nc(N(C)C)c2[nH]ncc2n1: 5.25% (inactive)
CCNC(=O)C1C2C=CC(C2)C1C(=O)NCC (stereo not drawn): 2.9% (inactive)
N#CCc1cn(-c2ccccc2)nn1: -7.85% (inactive)

growth inhibition recorded for this molecule, CC(=O)OC(C)N(C(C)=O)c1ncc([N+](=O)[O-])s1 (stereo not drawn) , is -21.8% (inactive)

growth inhibition recorded for this molecule, CC(=O)OC(Cn1cncn1)(Cn1cncn1)c1ccc(Cl)cc1Cl , is 43.6% (inactive)

growth inhibition recorded for this molecule, CC(OC(C)(C)C)C(NC(=O)C(N)CCCCNC(=O)OC(C)(C)C)C(=O)NC(Cc1ccccc1)C(=O)O (stereo not drawn) (H-Lys(Boc)-Thr(tBu)-Phe-OH; configuration not given here) , is -37.3% (inactive)

growth inhibition recorded for this molecule, CN(CC(=O)O)Cc1oc(CO)cc(=O)c1O , is -9.45% (inactive)

growth inhibition recorded for this molecule, O=[N+]([O-])c1cccc(S(=O)(=O)O)c1 (tested in a mixture with another compound) , is 15.3% (inactive)

growth inhibition recorded for this molecule, CCOC(=O)C1=CC2CCOC2O1 (stereo not drawn) , is -19.8% (inactive)

growth inhibition recorded for this molecule, Cc1c(C(=O)Nc2ccccc2)nnn1-c1ccnc2cc(C(F)(F)F)ccc12 , is -13.8% (inactive)
